Data provenance is patent US20250163104A1.

Target: human PD-1 / PD-L1-Ig binding on Jurkat cell line over-expressing human PD-1 (Jurkat-PD-1) (Homo sapiens, UniProt Q15116)
Construct: expressed in transfected cells; host or cells: Jurkat
Sequence (Q15116 25-288): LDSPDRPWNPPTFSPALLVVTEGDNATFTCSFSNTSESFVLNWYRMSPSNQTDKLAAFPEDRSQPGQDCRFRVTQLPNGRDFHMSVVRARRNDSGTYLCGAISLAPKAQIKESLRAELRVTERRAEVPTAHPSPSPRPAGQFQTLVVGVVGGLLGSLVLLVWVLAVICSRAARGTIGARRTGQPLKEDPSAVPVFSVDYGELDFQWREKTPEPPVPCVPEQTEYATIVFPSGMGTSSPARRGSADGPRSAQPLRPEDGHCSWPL
Assay: Jurkat-PD-1 Cell Binding High-Content Screening Assay (CBA)
Assay type: cell-based
Settings: Jurkat-PD-1 cells, PE-labeled PD-L1-Ig 20 nM final; read-out: Jurkat HPD1_PDL1 IC50
Procedure: Example 3. Jurkat-PD-1 Cell Binding High-Content Screening Assay (CBA) Jurkat-PD-1 Cell Binding High-Content Screening Assay (CBA). Phycoerythrin (PE) was covalently linked to the Ig epitope tag of human PD-L1-Ig and fluorescently-labeled PD-L1-Ig was used for binding studies with a Jurkat cell line over-expressing human PD-1 (Jurkat-PD-1). Briefly, 8×10^3 Jurkat-hPD-1 cells were seeded into 384 well plates in 20 μl of DMEM supplemented with 10% fetal calf serum. […]
Where a SMILES comes first, the peptide text is derived from it. Bridges are numbered along the chain shown (N, C = ends). [ ]: non-standard residue; d: D form. ξ: configuration not given here. Bip = N[C@@H](Cc1ccc(-c2ccccc2)cc1)C(=O)O; 4Pal = N[C@@H](Cc1ccncc1)C(=O)O; Orn = NCCC[C@H](N)C(=O)O; Dab = NCC[C@H](N)C(=O)O; Dap = NC[C@H](N)C(=O)O; ξA = CC(N)C(=O)O
observation-type: IC50 (nM)
Answers are plain numbers, in nM.

Per the record, CC(C)C[C@@H]1NC(=O)[C@H](CCN)NC(=O)[C@@H](CC(C)C)NC(=O)[C@H](CCCN)NC(=O)[C@H](C(C)C)NC(=O)[C@H](Cc2ccc(-c3ccccc3)cc2)NC(=O)[C@H](C(C)C)NC(=O)[C@H](Cc2c[nH]c3ccccc23)NC(=O)[C@H](CC(=O)O)NC(=O)[C@H](Cc2ccncc2)NC(=O)[C@H](CN)NC(=O)CSC[C@@H](C(=O)NC(C)C(N)=O)NC(=O)[C@H]([C@@H](C)O)NC(=O)[C@H](C(C)C)NC1=O (stereo partly drawn) [Compound 1236] ({CH2CO}-[Dap][4Pal]DWV[Bip]V[Orn][dL][Dab]LVTC[ξA]-NH2; thioether N-14) has IC50 of 17.4
